B1: MATN2 (parent)
chain: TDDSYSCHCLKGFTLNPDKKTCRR

# Variants of: B1
# experiment_description: protein stability index of a GFP-peptide fusion (GPS, HEK-293T) (PSI 1-6); higher = more stable;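 further: lentivirally expressed fusions sorted by FACS into six bins by GFP to DsRed ratio, PSI derived from sequencing read proportions per bin multiplied by bin number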
# measurement_context: c terminus: a fixed tail appended
Recorded protein stability index by entry
Form: value (number only, do not type unit).

Exam item: // fetch protein stability index given entry "R23P"
Marked response: 2.56

Exam item: // fetch protein stability index given entry "S6P"
Marked response: 2.5
